experimental-system: T1, C1-Ten/Tensin2 SH2 domain R1165A (UniProt Q63HR2 1120-1253, R1165A)
T1 sequence (looked up): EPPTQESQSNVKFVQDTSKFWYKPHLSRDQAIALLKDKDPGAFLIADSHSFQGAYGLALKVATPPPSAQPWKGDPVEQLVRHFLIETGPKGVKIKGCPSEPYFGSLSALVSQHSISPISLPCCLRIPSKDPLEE
experiment-description: fluorescence polarisation
Non-standard residues stand in square brackets, D forms with d. No end group written: not given here. fluorescein = fluorescein-6-aminohexanoyl label; pY = N[C@@H](Cc1ccc(OP(=O)(O)O)cc1)C(=O)O; Ahx = NCCCCCC(=O)O
reported-endpoint: Kd (µM)
Respond numerically; units are µM and should not be typed.

Input line: Recorded Kd of {fluorescein-Ahx}-NE[pY]DNV [F-Ahx-NEpYDNV, fluorescein-6-aminohexanoyl-labeled pY-containing peptide] , please.
Output line: 90.9

All figures here come from paper PMC6392469.
